- Test system: A549 (human lung cancer)
- method-notes: Anti-human solid tumor cell growth inhibition, MTT method, 72 h
- Format: cell-based
- study-conditions: Homo sapiens, A549
metric-name: IC50 (µg/mL)
Report the value in µg/mL with no unit label.

Example entries begin here.
[[record]]
molecule = "C[C@@H]1CC[C@@]2(OC1)OC1CC3C4CC=C5C[C@@H](O[C@@H]6O[C@H](CO)[C@@H](OC7O[C@@H](COC(=O)c8ccc(F)cc8F)[C@H](O)[C@H]7O)[C@H](O)[C@H]6OC6O[C@@H](C)[C@H](O)[C@@H](O)[C@H]6O)CC[C@]5(C)C4CC[C@]3(C)C1[C@@H]2C (stereo partly shown)"
units = "µg/mL"
reported = 1.19

[[record]]
molecule = "C[C@@H]1CC[C@@]2(OC1)OC1CC3C4CC=C5C[C@@H](O[C@@H]6O[C@H](CO)[C@@H](OC7O[C@@H](COC(=O)c8ccc(F)cc8Cl)[C@H](O)[C@H]7O)[C@H](O)[C@H]6OC6O[C@@H](C)[C@H](O)[C@@H](O)[C@H]6O)CC[C@]5(C)C4CC[C@]3(C)C1[C@@H]2C (stereo partly shown)"
units = "µg/mL"
reported = 1.8

[[record]]
molecule = "C[C@@H]1CC[C@@]2(OC1)OC1CC3C4CC=C5C[C@@H](O[C@@H]6O[C@H](CO)[C@@H](OC7O[C@@H](COC(=O)c8ccncc8)[C@H](O)[C@H]7O)[C@H](O)[C@H]6OC6O[C@@H](C)[C@H](O)[C@@H](O)[C@H]6O)CC[C@]5(C)C4CC[C@]3(C)C1[C@@H]2C (stereo partly shown)"
units = "µg/mL"
reported = 1


Next, consider the following molecule.
### Prompt Look up IC50: C[C@@H]1CC[C@@]2(OC1)OC1CC3C4CC=C5C[C@@H](O[C@@H]6O[C@H](CO)[C@@H](OC7O[C@@H](COC(=O)c8cccs8)[C@H](O)[C@H]7O)[C@H](O)[C@H]6OC6O[C@@H](C)[C@H](O)[C@@H](O)[C@H]6O)CC[C@]5(C)C4CC[C@]3(C)C1[C@@H]2C (stereo partly shown)
### Response 1.6

###

Listed here are compounds together with their documented IC50.
- System: A549 (human lung cancer)
- method-notes: Anti-human solid tumor cell growth inhibition, MTT method, 72 h
- Type: cell-based
- study-conditions: Homo sapiens, A549
Report the value in µg/mL with no unit label.

Example entries begin here.
[[record]]
compound = "C[C@@H]1CC[C@@]2(OC1)OC1CC3C4CC=C5C[C@@H](O[C@@H]6O[C@H](CO)[C@@H](OC7O[C@@H](COC(=O)c8ccc(C(F)(F)F)cc8)[C@H](O)[C@H]7O)[C@H](O)[C@H]6OC6O[C@@H](C)[C@H](O)[C@@H](O)[C@H]6O)CC[C@]5(C)C4CC[C@]3(C)C1[C@@H]2C (stereo partly shown)"
metric_name = "IC50"
reported = 1.8

[[record]]
compound = "C[C@@H]1CC[C@@]2(OC1)OC1CC3C4CC=C5C[C@@H](O[C@@H]6O[C@H](CO)[C@@H](OC7O[C@@H](COC(=O)c8ccco8)[C@H](O)[C@H]7O)[C@H](O)[C@H]6OC6O[C@@H](C)[C@H](O)[C@@H](O)[C@H]6O)CC[C@]5(C)C4CC[C@]3(C)C1[C@@H]2C (stereo partly shown)"
metric_name = "IC50"
reported = 0.86

[[record]]
compound = "C[C@@H]1CC[C@@]2(OC1)OC1CC3C4CC=C5C[C@@H](O[C@@H]6O[C@H](CO)[C@@H](OC7O[C@@H](COC(=O)C8CC8)[C@H](O)[C@H]7O)[C@H](O)[C@H]6OC6O[C@@H](C)[C@H](O)[C@@H](O)[C@H]6O)CC[C@]5(C)C4CC[C@]3(C)C1[C@@H]2C (stereo partly shown)"
metric_name = "IC50"
reported = 0.86


Next, consider the following compound.
### Prompt Find IC50 (A549 (human lung cancer)) for the entry CC(=O)OC[C@@H]1OC(O[C@H]2[C@H](O)[C@@H](OC3O[C@@H](C)[C@H](O)[C@@H](O)[C@H]3O)[C@H](O[C@H]3CC[C@@]4(C)C(=CCC5C6CC7O[C@]8(CC[C@@H](C)CO8)[C@@H](C)C7[C@@]6(C)CCC54)C3)O[C@@H]2CO)[C@H](O)[C@H]1O (stereo partly shown)
### Response 0.83

###

Listed here are molecules together with their documented IC90.
- Test system: K562/adr (drug-resistant, chronic myeloid leukemia, CML)
- method-notes: Anti-leukemia cell growth inhibition, MTT method, 72 h
- Assay type: cell-based, human
- study-conditions: Homo sapiens, K562/Adr
Report the value in µg/mL with no unit label.

Example entries begin here.
[[record]]
molecule = "C[C@@H]1CC[C@@]2(OC1)OC1CC3C4CC=C5C[C@@H](O[C@@H]6O[C@H](CO)[C@@H](OC7O[C@@H](COC(=O)c8ccc(F)cc8Cl)[C@H](O)[C@H]7O)[C@H](O)[C@H]6OC6O[C@@H](C)[C@H](O)[C@@H](O)[C@H]6O)CC[C@]5(C)C4CC[C@]3(C)C1[C@@H]2C (some centres unmarked)"
system_name = "K562/adr (drug-resistant, chronic myeloid leukemia, CML)"
reported = 2

[[record]]
molecule = "C[C@@H]1CC[C@@]2(OC1)OC1CC3C4CC=C5C[C@@H](O[C@@H]6O[C@H](CO)[C@@H](OC7O[C@@H](COC(=O)c8ccncc8)[C@H](O)[C@H]7O)[C@H](O)[C@H]6OC6O[C@@H](C)[C@H](O)[C@@H](O)[C@H]6O)CC[C@]5(C)C4CC[C@]3(C)C1[C@@H]2C (some centres unmarked)"
system_name = "K562/adr (drug-resistant, chronic myeloid leukemia, CML)"
reported = 2.33

[[record]]
molecule = "C[C@@H]1CC[C@@]2(OC1)OC1CC3C4CC=C5C[C@@H](O[C@@H]6O[C@H](CO)[C@@H](OC7O[C@@H](COC(=O)c8ccc(F)cc8)[C@H](O)[C@H]7O)[C@H](O)[C@H]6OC6O[C@@H](C)[C@H](O)[C@@H](O)[C@H]6O)CC[C@]5(C)C4CC[C@]3(C)C1[C@@H]2C (some centres unmarked)"
system_name = "K562/adr (drug-resistant, chronic myeloid leukemia, CML)"
reported = 2.66

[[record]]
molecule = "CC(=O)OC[C@@H]1OC(O[C@H]2[C@H](O)[C@@H](OC3O[C@@H](C)[C@H](O)[C@@H](O)[C@H]3O)[C@H](O[C@H]3CC[C@@]4(C)C(=CCC5C6CC7O[C@]8(CC[C@@H](C)CO8)[C@@H](C)C7[C@@]6(C)CCC54)C3)O[C@@H]2CO)[C@H](O)[C@H]1O (some centres unmarked)"
system_name = "K562/adr (drug-resistant, chronic myeloid leukemia, CML)"
reported = 2.32


Next, consider the following molecule.
### Prompt Look up IC90: C[C@@H]1CC[C@@]2(OC1)OC1CC3C4CC=C5C[C@@H](O[C@@H]6O[C@H](CO)[C@@H](OC7O[C@@H](COC(=O)c8ccc(F)cc8F)[C@H](O)[C@H]7O)[C@H](O)[C@H]6OC6O[C@@H](C)[C@H](O)[C@@H](O)[C@H]6O)CC[C@]5(C)C4CC[C@]3(C)C1[C@@H]2C (some centres unmarked)
### Response 2.5

###

- Test system: K562/adr (drug-resistant, chronic myeloid leukemia, CML)
- method-notes: Anti-leukemia cell growth inhibition, MTT method, 72 h
- Format: cell-based, human
- study-conditions: Homo sapiens, K562/Adr
Listed here are compounds together with their documented IC90.
Report the value in µg/mL with no unit label.

[[record]]
compound = "C[C@@H]1CC[C@@]2(OC1)OC1CC3C4CC=C5C[C@@H](O[C@@H]6O[C@H](CO)[C@@H](OC7O[C@@H](COC(=O)C8CC8)[C@H](O)[C@H]7O)[C@H](O)[C@H]6OC6O[C@@H](C)[C@H](O)[C@@H](O)[C@H]6O)CC[C@]5(C)C4CC[C@]3(C)C1[C@@H]2C (some centres unmarked)"
reported = 2.14


### Prompt Look up IC90: C[C@@H]1CC[C@@]2(OC1)OC1CC3C4CC=C5C[C@@H](O[C@@H]6O[C@H](CO)[C@@H](OC7O[C@@H](COC(=O)c8ccco8)[C@H](O)[C@H]7O)[C@H](O)[C@H]6OC6O[C@@H](C)[C@H](O)[C@@H](O)[C@H]6O)CC[C@]5(C)C4CC[C@]3(C)C1[C@@H]2C (some centres unmarked)
### Response 2.23
